- systemUnderTest: SHP2 enzyme (catalytic domain, amino acid sequence 224-528) (Homo sapiens, UniProt Q06124)
- Construct: purchased GenScript
- Sequence (Q06124 224-528): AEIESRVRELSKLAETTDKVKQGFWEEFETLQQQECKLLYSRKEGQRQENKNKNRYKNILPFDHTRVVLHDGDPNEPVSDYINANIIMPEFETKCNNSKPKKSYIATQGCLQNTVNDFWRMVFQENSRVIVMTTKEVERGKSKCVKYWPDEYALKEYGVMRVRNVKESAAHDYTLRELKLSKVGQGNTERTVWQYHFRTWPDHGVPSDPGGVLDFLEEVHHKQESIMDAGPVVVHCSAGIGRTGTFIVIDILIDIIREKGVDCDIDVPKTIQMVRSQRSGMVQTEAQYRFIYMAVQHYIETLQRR
- experimentNotes: SHP2 enzyme inhibition assay (DiFMUP substrate, fluorescence)
- Type: biochemical
- conditionLabel: SHP2 catalytic domain, DiFMUP substrate, 30 min pre-incubation; read-out: S HP2 I C50
pIC50: −log10 of the molar value.
endpoint: pIC50

INSERT INTO results (compound, endpoint, observedmeasurement) VALUES
  ('O=C(Nc1ccc(-c2ccsc2)cc1)C(=O)Nc1ccc(-c2cc3cc(F)c(-c4nnn[nH]4)cc3n2C2CCC2)cc1 [Example 4]', 'pIC50', 7.54),
  ('CC1(n2c(-c3ccc(NC(=O)C(=O)Nc4ccc(N5CCC6(CCOC6)CC5)cc4)cc3)cc3cc(F)c(-c4nnn[nH]4)cc32)CCC1 [Example 68]', 'pIC50', 7.32),
  ('O=C(Nc1ccc(-c2cc3cc(F)c(-c4nnn[nH]4)cc3n2C2CCC2)cc1)C(=O)Nc1ccc(N2CC3(C2)CC(O)(C(F)(F)F)C3)cc1 [Example 78]', 'pIC50', 7.13);

P = O=C(Nc1ccc(-c2ccsc2)cc1)C(=O)Nc1ccc(-c2oc3cc(F)c(-c4nnn[nH]4)cc3c2C2CCC2)cc1 [Example 130]
Q = O=C(Nc1ccc(-c2cc3cc(F)c(-c4nnn[nH]4)cc3n2CC2CC2)cc1)C(=O)Nc1ccc(N2CCC3(CCOC3)CC2)cc1 [Example 72]
Which entry has a larger number for pIC50, P or Q ? Answer by stating the label of the chosen item.
P
(P: 7.60, Q: 7.34)

A = N#Cc1nnc(-c2cc3c(cc2F)cc(-c2ccc(NC(=O)C(=O)Nc4ccc(N5CCC6(CCOC6)CC5)cc4)cc2)n3C2CCC2)[nH]1 [Example 127]
B = CC1(n2c(-c3ccc(NC(=O)C(=O)Nc4ccc(N5CCC(CCO)CC5)cc4)cc3)cc3cc(F)c(-c4nnn[nH]4)cc32)CCC1 [Example 26]
Which of these two has the smaller recorded pIC50: A or B ? # answer = label of selected item
A
(A: 6.84, B: 7.21)

A = CC1(C#N)CCN(c2ccc(NC(=O)C(=O)Nc3ccc(-c4cc5cc(F)c(-c6nnn[nH]6)cc5n4C4CCC4)cc3)cc2)C1 (stereo not shown) [Example 11]
B = CC1(n2c(-c3ccc(NC(=O)C(=O)Nc4ccc(N5CC6(CCCOC6)C5)cc4)cc3)cc3cc(F)c(-c4nnn[nH]4)cc32)CCC1 [Example 56]
C = CC(O)C1CCN(c2ccc(NC(=O)C(=O)Nc3ccc(-c4cc5cc(F)c(-c6nnn[nH]6)cc5n4C4CCC4)cc3)cc2)C1 (stereo not shown) [Example 15]
Please order the records by their reported pIC50, lowest number first. Give the order by naming the labels one after another as requested.
C, B, A
(C: 6.74, B: 7.13, A: 7.52)

P = O=C(Nc1ccc(-c2cc3cc(F)c(-c4nnn[nH]4)cc3n2C2CCC2)cc1)C(=O)Nc1ccc(N2CCC(F)(CO)C2)cc1 (stereo not shown) [Example 17]
Q = CC1CN(c2ccc(NC(=O)C(=O)Nc3ccc(-c4cc5cc(F)c(-c6nnn[nH]6)cc5n4C4CCC4)cc3)cc2)CCC1CO (stereo not shown) [Example 46]
// returns P or Q , whichever has the lower pIC50 Record your answer as the label of the chosen record.
P
(P: 6.92, Q: 7.35)

* * *

- systemUnderTest: CDC14A (Homo sapiens)
- Sequence (Q9UNH5 whole entry, species assumed): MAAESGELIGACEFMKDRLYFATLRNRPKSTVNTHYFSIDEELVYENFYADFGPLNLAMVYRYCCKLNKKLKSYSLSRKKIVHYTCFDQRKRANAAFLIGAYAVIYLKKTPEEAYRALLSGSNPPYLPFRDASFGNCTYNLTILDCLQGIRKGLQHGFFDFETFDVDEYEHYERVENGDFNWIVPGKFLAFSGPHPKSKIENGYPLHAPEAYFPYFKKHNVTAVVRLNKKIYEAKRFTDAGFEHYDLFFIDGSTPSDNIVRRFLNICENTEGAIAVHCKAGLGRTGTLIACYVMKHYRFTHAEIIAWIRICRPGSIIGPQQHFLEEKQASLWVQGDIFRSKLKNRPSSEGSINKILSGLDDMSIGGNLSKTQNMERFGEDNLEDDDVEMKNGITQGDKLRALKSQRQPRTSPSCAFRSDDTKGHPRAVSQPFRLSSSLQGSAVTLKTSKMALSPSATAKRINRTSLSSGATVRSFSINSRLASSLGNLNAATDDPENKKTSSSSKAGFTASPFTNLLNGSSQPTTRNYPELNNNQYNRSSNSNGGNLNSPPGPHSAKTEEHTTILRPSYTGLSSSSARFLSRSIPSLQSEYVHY
endpoint: IC50

Example entries begin here.
INSERT INTO assay_data (molecule, systemundertest, observedmeasurement) VALUES
  ('Cn1c(-c2cccc(NC(=O)C(=O)Nc3ccc(-c4ccsc4)cc3)c2)c(I)c2cc(C(=O)O)c(O)cc21 [Example 11a-1, reference compound]', 'CDC14A (Homo sapiens)', '16 µM'),
  ('O=C(Nc1ccc(-c2oc3cc(F)c(-c4nnn[nH]4)cc3c2C2CCC2)cc1)C(=O)Nc1ccc(N2CCC3(CCOC3)CC2)cc1', 'CDC14A (Homo sapiens)', '> 100 µM');

Hey, CDC14A (Homo sapiens) data for "O=C(Nc1ccc(-c2ccsc2)cc1)C(=O)Nc1ccc(-c2cc3ccc(-c4nnn[nH]4)nc3n2C2CCC2)cc1" : IC50 came out at 34.6 µM

Given the molecule "Cn1cc(-c2ccc(NC(=O)C(=O)Nc3ccc(-c4cc5cc(F)c(-c6nnc(C(F)(F)F)[nH]6)cc5n4C4CCC4)cc3)cc2)cn1" and test system CDC14A (Homo sapiens), the measured IC50 is > 100 µM

Lab entry: CDC14A (Homo sapiens) assay, molecule "Cn1cc(-c2ccc(NC(=O)C(=O)Nc3ccc(-c4cc5cc(F)c(-c6noc(=O)[nH]6)cc5n4C4CCC4)cc3)cc2)cn1" , IC50 = > 100 µM

Measured IC50 (CDC14A (Homo sapiens)), entry "CC1(n2c(-c3ccc(NC(=O)C(=O)Nc4ccc(N5CCC6(CCOC6)CC5)cc4)cc3)cc3cc(F)c(-c4nnn[nH]4)cc32)CCC1" : > 25 µM

# value of IC50, CDC14A (Homo sapiens), item "O=C(Nc1ccc(-c2ccsc2)cc1)C(=O)Nc1ccc(-c2cc3cc(F)c(-c4nnn[nH]4)nc3n2C2CCC2)cc1" = > 50 µM

* * *

- systemUnderTest: VHR (Homo sapiens, UniProt P51452)
- Construct: made in house; host or cells: E. coli
- Sequence (P51452 whole entry, species assumed): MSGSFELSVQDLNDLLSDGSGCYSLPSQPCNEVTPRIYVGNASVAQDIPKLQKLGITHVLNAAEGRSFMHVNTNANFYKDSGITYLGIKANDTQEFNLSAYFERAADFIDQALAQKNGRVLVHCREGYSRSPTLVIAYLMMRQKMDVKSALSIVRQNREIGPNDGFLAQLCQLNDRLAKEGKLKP
- experimentNotes: Tyrosine phosphatase selectivity (pNPP substrate), VHR
- Assay type: biochemical
- conditionLabel: selectivity ratio VHR over SHP2
endpoint: IC50PTP/IC50SHP2 VHR

These recorded examples may help you get a feel for the data.
INSERT INTO measurements (molecule, systemundertest, endpoint, observedmeasurement) VALUES
  ('O=C(Nc1ccc(-c2oc3cc(F)c(-c4nnn[nH]4)cc3c2C2CCC2)cc1)C(=O)Nc1ccc(N2CCC3(CCOC3)CC2)cc1', 'VHR (Homo sapiens, UniProt P51452)', 'IC50PTP/IC50SHP2 VHR', 1729.4),
  ('Cn1cc(-c2ccc(NC(=O)C(=O)Nc3ccc(-c4cc5cc(F)c(-c6nnc(C(F)(F)F)[nH]6)cc5n4C4CCC4)cc3)cc2)cn1', 'VHR (Homo sapiens, UniProt P51452)', 'IC50PTP/IC50SHP2 VHR', 139.7);

A = O=C(Nc1ccc(-c2ccsc2)cc1)C(=O)Nc1ccc(-c2cc3cnc(-c4nnn[nH]4)nc3n2C2CCC2)cc1
B = O=C(Nc1ccc(-c2cc3cc(F)c(-c4nnn[nH]4)cc3n2C2CCC2)cc1)C(=O)Nc1ccc(N2CC3COCC3C2)cc1 (stereo not shown)
Looking only at measured IC50PTP/IC50SHP2 VHR, which entry is lower, A or B ? Use the label to indicate which entry you chose.
B
(B: 29.7, A: 380.8)

* * *

- systemUnderTest: SHP1 (Homo sapiens)
- Sequence (P29350 whole entry): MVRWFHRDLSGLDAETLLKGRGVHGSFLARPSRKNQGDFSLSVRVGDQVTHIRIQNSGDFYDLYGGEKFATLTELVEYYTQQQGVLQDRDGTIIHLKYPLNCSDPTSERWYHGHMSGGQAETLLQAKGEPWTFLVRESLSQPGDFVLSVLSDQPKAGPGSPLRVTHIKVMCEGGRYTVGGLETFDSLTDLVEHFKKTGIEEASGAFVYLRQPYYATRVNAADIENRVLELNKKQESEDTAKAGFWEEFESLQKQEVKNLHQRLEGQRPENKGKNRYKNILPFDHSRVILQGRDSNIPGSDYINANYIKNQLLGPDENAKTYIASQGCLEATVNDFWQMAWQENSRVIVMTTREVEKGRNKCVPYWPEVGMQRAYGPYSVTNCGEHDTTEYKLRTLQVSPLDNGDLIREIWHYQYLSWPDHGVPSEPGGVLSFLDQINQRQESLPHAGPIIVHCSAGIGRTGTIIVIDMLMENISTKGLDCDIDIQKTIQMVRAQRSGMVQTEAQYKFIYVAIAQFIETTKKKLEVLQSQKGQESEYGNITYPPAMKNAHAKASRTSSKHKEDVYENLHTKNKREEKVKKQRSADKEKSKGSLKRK
endpoint: IC50 (nM)

INSERT INTO measurements (compound, systemundertest, unitspec, observedmeasurement) VALUES
  ('O=C(Nc1ccc(-c2cc3cc(F)c(-c4nnn[nH]4)cc3n2C2CCC2)cc1)C(=O)Nc1ccc(N2CCOCC2)cc1', 'SHP1 (Homo sapiens)', 'nM', 120),
  ('O=C(Nc1ccc(-c2oc3cc(F)c(-c4nnn[nH]4)cc3c2C2CCC2)cc1)C(=O)Nc1ccc(N2CCC3(CCOC3)CC2)cc1', 'SHP1 (Homo sapiens)', 'nM', 170),
  ('O=C(Nc1ccc(-c2ccsc2)cc1)C(=O)Nc1ccc(-c2cc3ccc(-c4nnn[nH]4)nc3n2C2CCC2)cc1', 'SHP1 (Homo sapiens)', 'nM', 700);

1 = Cn1c(-c2cccc(NC(=O)C(=O)Nc3ccc(-c4ccsc4)cc3)c2)c(I)c2cc(C(=O)O)c(O)cc21 [Example 11a-1, reference compound]
2 = O=C(Nc1ccc(-c2cc3cc(F)c(-c4nnn[nH]4)cc3n2C2CCC2)cc1)C(=O)Nc1ccc(N2CC3COCC3C2)cc1 (stereo not shown)
3 = Cn1cc(-c2ccc(NC(=O)C(=O)Nc3ccc(-c4cc5cc(F)c(-c6nnc(C(F)(F)F)[nH]6)cc5n4C4CCC4)cc3)cc2)cn1
# rank_down: sort by IC50, max first State the ranking by listing the labels in the requested order.
3, 1, 2
(3: 5620 nM, 1: 800 nM, 2: 100 nM)

Reference for the values: patent EP4741383A1
